Biological target: CYP2A13 (Homo sapiens)
Construct: made in house
Sequence (Q16696 1-494): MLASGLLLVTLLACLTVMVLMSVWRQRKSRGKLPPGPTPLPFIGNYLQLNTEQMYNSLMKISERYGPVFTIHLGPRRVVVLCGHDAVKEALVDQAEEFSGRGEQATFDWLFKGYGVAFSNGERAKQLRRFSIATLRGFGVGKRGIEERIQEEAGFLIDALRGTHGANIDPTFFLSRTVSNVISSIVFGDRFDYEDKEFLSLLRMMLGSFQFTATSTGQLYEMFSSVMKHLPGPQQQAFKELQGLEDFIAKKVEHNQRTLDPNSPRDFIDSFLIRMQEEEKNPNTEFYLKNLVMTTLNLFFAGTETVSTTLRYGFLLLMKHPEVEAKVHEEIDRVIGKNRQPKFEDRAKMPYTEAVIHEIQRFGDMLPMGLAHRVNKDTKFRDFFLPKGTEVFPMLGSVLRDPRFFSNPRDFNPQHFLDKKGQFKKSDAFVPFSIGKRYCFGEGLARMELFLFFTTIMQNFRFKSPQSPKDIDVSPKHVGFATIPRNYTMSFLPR
Assay: Inhibition of CYP2A13-mediated coumarin 7-hydroxylation, enzymatic reconstitution assay
Type: biochemical
Settings: 10-min pre-incubation in the presence of NADPH; read-out: IC50 CYP2A13 Pre-incubation
Listed here are compounds together with their documented pIC50.
API: returns pIC50 as number; meaning -log10 of concentration in mol/L.

C=C(C)C(=O)OC1CC(C)C2(O)CCC(C)(/C=C3/OC(=O)C(COC(C)=O)=C31)O2 (stereo not shown) [Hirsutinolide 5]: 5.35
C/C=C(\C)C(=O)OC1CC(C)C2(O)CCC(C)(/C=C3/OC(=O)C(COC(C)=O)=C31)O2 (stereo not drawn) [Hirsutinolide 6, 8α-tigloyloxyhirsutinolide-13-O-acetate]: 5.12
CC(=O)OCC1=C2/C(=C\C3(C)CCC(O)(O3)C(C)CC2OC(=O)/C(C)=C/CO)OC1=O (stereo not shown) [Hirsutinolide 8]: 4.80

Consider the record given below.
Query: # pIC50 lookup, item CC#Cc1ccc(C#CC#CC(O)CO)s1 (stereo not shown)
Result: 5.83

----------
Listed next: entries and their corresponding activity at 5 µM.
Biological target: CYP2A6 (Homo sapiens, UniProt P11509)
Sequence (P11509 1-494): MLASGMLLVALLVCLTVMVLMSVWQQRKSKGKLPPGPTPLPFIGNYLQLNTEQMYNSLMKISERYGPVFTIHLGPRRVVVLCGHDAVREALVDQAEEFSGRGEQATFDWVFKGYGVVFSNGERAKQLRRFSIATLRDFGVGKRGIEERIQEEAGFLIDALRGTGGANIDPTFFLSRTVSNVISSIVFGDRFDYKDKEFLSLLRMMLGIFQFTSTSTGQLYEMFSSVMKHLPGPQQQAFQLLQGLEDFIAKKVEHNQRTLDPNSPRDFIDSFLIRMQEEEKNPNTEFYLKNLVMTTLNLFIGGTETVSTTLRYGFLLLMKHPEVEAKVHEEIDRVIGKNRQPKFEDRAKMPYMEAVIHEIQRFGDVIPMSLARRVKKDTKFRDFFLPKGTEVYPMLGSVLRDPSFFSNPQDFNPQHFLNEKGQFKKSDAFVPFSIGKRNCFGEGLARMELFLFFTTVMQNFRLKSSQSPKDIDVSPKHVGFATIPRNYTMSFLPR
Assay: Effects of trapping agents and dialysis on inactivation of CYP2A6
Type: biochemical
Design: made in house
Conditions: CYP2A6 inhibition reaction mixture, probe coumarin, compound 5 µM, read-out: Per cent remaining activity, 2 mM GSH
Write the number in % without appending the unit.

Sample records with activity at 5 µM:
CC#Cc1ccc(C#CC#CC(O)COC(C)=O)s1 (stereo not drawn): 28.5
CC#Cc1ccc(C#CC#CC(O)CO)s1 (stereo not drawn): 8.42

Query: Could you tell me which activity at 5 µM is on file for CC#CC#Cc1ccc(C#CC(O)COC(C)=O)s1 (stereo not drawn) ?
Result: 21.6

----------
Quick reference: IC50 of the listed items.
Biological target: UniProt P11509
Sequence (P11509 1-494): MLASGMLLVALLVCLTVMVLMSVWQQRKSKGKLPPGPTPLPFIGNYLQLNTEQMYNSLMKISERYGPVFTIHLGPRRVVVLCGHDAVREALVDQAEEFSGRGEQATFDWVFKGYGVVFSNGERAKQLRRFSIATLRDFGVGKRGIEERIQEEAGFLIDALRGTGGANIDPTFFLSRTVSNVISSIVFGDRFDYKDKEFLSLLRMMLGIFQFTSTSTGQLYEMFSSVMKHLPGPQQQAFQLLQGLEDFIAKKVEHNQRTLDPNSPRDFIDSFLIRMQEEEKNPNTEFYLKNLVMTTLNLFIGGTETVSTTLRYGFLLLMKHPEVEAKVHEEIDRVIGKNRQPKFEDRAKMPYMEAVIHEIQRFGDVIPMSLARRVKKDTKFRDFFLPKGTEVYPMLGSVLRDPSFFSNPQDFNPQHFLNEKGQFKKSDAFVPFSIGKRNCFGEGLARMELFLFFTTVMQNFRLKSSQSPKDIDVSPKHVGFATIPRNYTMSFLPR
Assay: Inhibition of CYP2A6-mediated coumarin 7-hydroxylation, enzymatic reconstitution assay
Type: biochemical
Set-up: made in house
Settings: coincubation; coumarin 2 µM; read-out: IC50 CYP2A6 Coincubation
Form entry: value (µM) — number only.

CC#Cc1ccc(C#CC#CC(O)CO)s1 (stereo not drawn): 3.9
CC#CC#Cc1ccc(C#CC(O)COC(C)=O)s1 (stereo not drawn): 6.43

Query: Give its IC50 value. Item: CC#Cc1ccc(C#CC#CC(O)COC(C)=O)s1 (stereo not drawn)
Result: 4.44

----------
Biological target: CYP2A13 (Homo sapiens, UniProt Q16696)
Construct: made in house
Sequence (Q16696 1-494): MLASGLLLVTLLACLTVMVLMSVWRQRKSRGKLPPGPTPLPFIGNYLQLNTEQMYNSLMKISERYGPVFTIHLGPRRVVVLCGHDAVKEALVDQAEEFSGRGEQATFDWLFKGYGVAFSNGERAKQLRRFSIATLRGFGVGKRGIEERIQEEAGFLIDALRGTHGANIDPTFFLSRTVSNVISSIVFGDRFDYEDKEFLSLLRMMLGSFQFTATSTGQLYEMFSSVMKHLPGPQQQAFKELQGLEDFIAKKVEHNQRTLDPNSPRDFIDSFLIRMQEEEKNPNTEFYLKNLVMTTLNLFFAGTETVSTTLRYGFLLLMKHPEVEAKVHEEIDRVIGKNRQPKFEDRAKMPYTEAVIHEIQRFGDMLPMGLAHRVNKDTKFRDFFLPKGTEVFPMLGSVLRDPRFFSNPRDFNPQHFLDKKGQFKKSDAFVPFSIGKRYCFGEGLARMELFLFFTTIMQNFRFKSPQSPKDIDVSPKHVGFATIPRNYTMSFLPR
Test: Effects of trapping agents and dialysis on inactivation of CYP2A13
Format: biochemical
Details: CYP2A13 inhibition reaction mixture, probe coumarin, compound 10 µM, read-out: Per cent remaining activity, Pre-incubation
// reported activity at 10 µM for each item listed
Give the value, in units of %, as a plain number.

Example entries and their recorded answers appear below.
C=C(CO)C(=O)OC1CC(C)C2(O)CCC(C)(/C=C3/OC(=O)C(COC(C)=O)=C31)O2 (stereo not drawn) [Hirsutinolide 7]: 22.2
C/C=C(\C)C(=O)OC1CC(C)C2(O)CCC(C)(/C=C3/OC(=O)C(COC(C)=O)=C31)O2 (stereo not drawn) [Hirsutinolide 6, 8α-tigloyloxyhirsutinolide-13-O-acetate]: 28.4

Query: I'm curious: which activity at 10 µM was measured for C=C(C)C(=O)OC1CC(C)C2(O)CCC(C)(/C=C3/OC(=O)C(COC(C)=O)=C31)O2 (stereo not drawn) [Hirsutinolide 5] tested on CYP2A13 (Homo sapiens, UniProt Q16696)?
Result: 29.3

----------
Target: CYP2A13 (Homo sapiens, UniProt Q16696)
Construct: made in house
Assay: Mechanism-based (time- and NADPH-dependent) inactivation of CYP2A13
Type: biochemical
Settings: pre-incubation 0-30 min with NADPH
// label 0 strictly below 0.001 s⁻¹ in kinact; label 1 otherwise

C=C(C)C(=O)OC1CC(C)C2(O)CCC(C)(/C=C3/OC(=O)C(COC(C)=O)=C31)O2 (stereo not shown) [Hirsutinolide 5]: label 0
CC#Cc1ccc(C#CC#CC(O)CO)s1 (stereo not shown): label 0
CC(=O)OCC1=C2/C(=C\C3(C)CCC(O)(O3)C(C)CC2OC(=O)/C(C)=C/CO)OC1=O (stereo not shown) [Hirsutinolide 8]: label 1

Read the next record carefully.
Query: Check the entry CC#CC#Cc1ccc(C#CC(O)COC(C)=O)s1 (stereo not shown) : does kinact equal or exceed 0.001 s⁻¹?
Result: label 1

----------
Target: CYP2A13 (Homo sapiens, UniProt Q16696)
Construct: made in house
Test: Effects of trapping agents and dialysis on inactivation of CYP2A13
Format: biochemical
Details: CYP2A13 inhibition reaction mixture, probe coumarin, compound 20 µM, read-out: Per cent remaining activity, 2000 U catalase
ASSAY_ENDPOINT: activity at 20 µM (%)
# number only, unit % dropped from output

Query: Could you tell me which activity at 20 µM is on file for CC(=O)OCC1=C2/C(=C\C3(C)CCC(O)(O3)C(C)CC2OC(=O)/C(C)=C/CO)OC1=O (stereo not shown) [Hirsutinolide 8] ?
Result: 19.4
